SUBJECT OF TEST: PaCntM (Pseudomonas aeruginosa, UniProt A0A0H2ZH12)
Construct: full length, N-terminal His6 tag (TEV-cleavable, pET-TEV), E. coli BL21
Sequence (A0A0H2ZH12 whole entry): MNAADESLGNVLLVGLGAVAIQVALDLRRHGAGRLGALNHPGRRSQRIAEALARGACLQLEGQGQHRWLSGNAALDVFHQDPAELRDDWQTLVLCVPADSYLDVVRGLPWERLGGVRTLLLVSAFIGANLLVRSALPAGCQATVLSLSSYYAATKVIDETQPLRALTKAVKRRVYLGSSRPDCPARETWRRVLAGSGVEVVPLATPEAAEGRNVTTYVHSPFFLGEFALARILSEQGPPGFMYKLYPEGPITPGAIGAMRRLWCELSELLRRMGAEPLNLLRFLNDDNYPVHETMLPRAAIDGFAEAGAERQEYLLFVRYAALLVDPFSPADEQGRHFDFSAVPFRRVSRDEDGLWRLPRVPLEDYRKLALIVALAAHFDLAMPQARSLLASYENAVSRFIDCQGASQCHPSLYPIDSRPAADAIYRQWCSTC
PROCEDURE TEXT: fluorescence resonance energy transfer titration (Trp to NAD(P)H)
METRIC NAME: Kd
Express your answer as a number followed by its unit.

I have this molecule here, `NC(=O)C1=CN([C@@H]2O[C@H](COP(=O)(O)OP(=O)(O)OC[C@H]3O[C@@H](n4cnc5c(N)ncnc54)[C@H](O)[C@@H]3O)[C@@H](O)[C@H]2O)C=CC1` , and I need its recorded Kd.
30 µM

These entries and their values trace back to paper PMC5719457.
